Reported logP values for the following compounds.

>  <compoundStructureString>
COc1cccc(-c2c3ccc(=[N+](C)C)cc-3sc3cc(N(C)C)ccc23)c1.[Br-]

>  <logP>
0.14

$$$$
>  <compoundStructureString>
C[N+](C)=c1ccc2c(-c3ccc(C(=S)N4CCCCC4)s3)c3cc4c5c(c3sc-2c1)CCCN5CCC4.F[P-](F)(F)(F)(F)F

>  <logP>
2.7

$$$$
>  <compoundStructureString>
CN(C)c1ccc2c(-c3ccc(CCl)cc3)c3ccc(=[N+](C)C)cc-3oc2c1.[Br-]

>  <logP>
1.1

$$$$
>  <compoundStructureString>
CN(C)c1ccc2c(-c3ccc(C(=S)N4CCCCC4)s3)c3ccc(=[N+](C)C)cc-3sc2c1

>  <logP>
1.7

$$$$
>  <compoundStructureString>
C[N+](C)=c1ccc2c(-c3ccccc3)c3cc4c5c(c3[se]c-2c1)CCCN5CCC4.F[P-](F)(F)(F)(F)F

>  <logP>
2.4

$$$$
>  <compoundStructureString>
COc1ccc(-c2c3ccc(=[N+](C)C)cc-3sc3cc(N(C)C)ccc23)cc1OC.F[P-](F)(F)(F)(F)F

>  <logP>
0.28

$$$$
>  <compoundStructureString>
CCN(CC)C(=O)c1ccc(-c2c3ccc(=[N+](C)C)cc-3[se]c3cc(N(C)C)ccc23)s1.F[P-](F)(F)(F)(F)F

>  <logP>
-0.39

$$$$
